- assay_details: qHTS for Inhibitors of ATXN expression: Validation (AID 588378); note: nearly all actives have a fitted effect of over 75% in size
- condition_notes: cell-based ATXN2 expression reporter assay, luminescence; series mostly up to 57.1 µM
Inconclusive results are not listed. Activity calls are given as the source filed them. Calls come from the whole dose curve; as a rule, active = well fitted inhibition curve with a large enough effect; inconclusive = small, poorly fitted or top-dose-only effect; inactive = no such curve, though single readings can be large or run the other way.
Outcome codes: True = active, False = inactive

compound: O=C(O)CNC(=O)C(CS)Cc1ccccc1 (stereo not given)
answer_label: False
//
compound: COc1ccccc1CNCCCCCCNCCCCCCCCNCCCCCCNCc1ccccc1OC
answer_label: False
//
compound: Cn1cc(C2=C(c3ccc(Cl)cc3Cl)C(=O)NC2=O)c2ccccc21
answer_label: False
//
compound: O=c1[nH]c2cc(C(F)(F)F)ccc2n1-c1cc(C(F)(F)F)ccc1O
answer_label: False
//
compound: C[N+](C)(C)CCOP(=O)(O)OP(=O)([O-])OC[C@H]1O[C@@H](n2ccc(N)nc2=O)[C@H](O)[C@@H]1O
answer_label: False
//
compound: C#CCN1C(C)=C(C(=O)OC)C(c2cccc([N+](=O)[O-])c2)C(C(=O)OCC)=C1C (stereo not given)
answer_label: False
//
compound: Nc1ncnc2c1ncn2[C@@H]1O[C@H](COP(=O)(O)OP(=O)(O)OP(=O)(O)OP(=O)(O)OC[C@@H]2O[C@H](n3cnc4c(N)ncnc43)[C@@H](O)[C@H]2O)[C@@H](O)[C@H]1O
answer_label: False
//
compound: C[N+](C)(CCCCCC[N+](C)(C)CCCN1C(=O)c2cccc3cccc(c23)C1=O)CCCN1C(=O)c2cccc3cccc(c23)C1=O
answer_label: False
//
compound: CNC(=O)[C@H]1O[C@@H](n2cnc3c(NCc4ccc(N)cc4)ncnc32)[C@H](O)[C@@H]1O
answer_label: False
//
compound: CCOC(=O)C1=C(C)NC(C)=C(C(=O)OCC)C1c1c(F)c(F)c(F)c(F)c1F
answer_label: False
//
compound: CSc1nc(N)c2ncn([C@@H]3O[C@H](COP(=O)(O)OP(=O)(O)OP(=O)(O)O)[C@@H](O)[C@H]3O)c2n1
answer_label: False
//
compound: CN(C)c1ccc(/C=C2\C(=O)Nc3ccccc32)cc1
answer_label: False
//
compound: CN1CCC[C@H]1c1cccnc1
answer_label: False
//
compound: Cc1nc2sccn2c(=O)c1CCN1CCC(=C(c2ccccc2)c2ccc(F)cc2)CC1
answer_label: False
//
compound: O=C1C(SCCO)=C(SCCO)C(=O)c2ccccc21
answer_label: True
//
compound: O=C(O)CC[C@@H](C(=O)O)N1C(=O)c2ccccc2C1=O
answer_label: False
//
compound: CN1C2CCC1CC(OC(=O)C(O)c1ccccc1)C2 (stereo not given)
answer_label: False
//
compound: C[N+]1(C)CCC(OC(=O)C(c2ccccc2)c2ccccc2)CC1
answer_label: False
//
compound: O=S(=O)(c1cccc2c(I)cccc12)N1CCCNCC1
answer_label: True
//
compound: O=C1NC(=O)/C(=C/c2ccc(-c3ccc(F)cc3O)o2)S1
answer_label: False
